assay: Clearance in mouse liver microsomes; format: ADME, Microsome
value type: microsomal CLint

INPUT: # input molecule: `CC(=O)Nc1nc2ccc(-c3cnc(Cl)c(NS(=O)(=O)c4ccc(F)cc4)c3)cc2s1` ; wanted: its microsomal CLint
OUTPUT: < 26 µL/min/mg

* * *

assay: Ratio of drug level in tumor to plasma in nu/nu CD1 mouse xenografted with U87MG tumor at 1 mg/kg, po administered as single dose measured upto 8 hrs; type: ADME, organism-based; design: dose 1 mg/kg, route oral; conditions: tumor and plasma
value type: Kp at 8 h
Numbers only.

INPUT: # input compound: `CC(=O)Nc1cn2nc(-c3cnc(Cl)c(NS(=O)(=O)c4ccc(F)cc4)c3)ccc2n1` ; wanted: its Kp at 8 h
OUTPUT: 0.13
